Species: Rattus norvegicus
Assay: DrugMatrix - Regimen: Daily Repeat
Assay type: toxicity, organism-based, Sprague-Dawley
Design: regimen Daily Repeat, gender Male, age 6-8 weeks
Details: in vivo, po, 0 mg/kg, 120 h, tissue Blood, route oral GAVAGE, dose level Control, time 5 day, […]
Each item that follows carries a reported MEAN CORPUSCULAR HEMOGLOBIN CONCENTRATION.
observed.property: MEAN CORPUSCULAR HEMOGLOBIN CONCENTRATION (G/DL)

compound: CN(C)c1nc(N(C)C)nc(N(C)C)n1
value.unit: G/DL
result.number: 38.82
//
compound: O=NN(CCCl)C(=O)NC1CCCCC1
value.unit: G/DL
result.number: 38.82
//
compound: CC(C)(Oc1ccc(Cl)cc1)C(=O)O
value.unit: G/DL
result.number: 39.42
//
compound: Cc1oncc1C(=O)Nc1ccc(C(F)(F)F)cc1 [LEFLUNOMIDE]
value.unit: G/DL
result.number: 39.03
//
compound: O=c1oc2ccccc2c(O)c1Cc1c(O)c2ccccc2oc1=O
value.unit: G/DL
result.number: 38.25
//
compound: Cc1ccc(-c2cc(C(F)(F)F)nn2-c2ccc(S(N)(=O)=O)cc2)cc1
value.unit: G/DL
result.number: 39.73
//
compound: Cc1noc(NS(=O)(=O)c2ccc(N)cc2)c1C
value.unit: G/DL
result.number: 38.4
//
compound: CCC(C)n1ncn(-c2ccc(N3CCN(c4ccc(OCC5COC(Cn6cncn6)(c6ccc(Cl)cc6Cl)O5)cc4)CC3)cc2)c1=O (stereo not drawn)
value.unit: G/DL
result.number: 39.73
//
compound: O=C(O)CCCc1ccc(N(CCCl)CCCl)cc1
value.unit: G/DL
result.number: 39.73
//
compound: OC(Cn1cncn1)(Cn1cncn1)c1ccc(F)cc1F
value.unit: G/DL
result.number: 39.73
//
compound: CCOC(=O)C1=C(COCCN)NC(C)=C(C(=O)OC)C1c1ccccc1Cl (stereo not drawn)
value.unit: G/DL
result.number: 38.82
//
compound: C[C@H]1O[C@@H](O[C@H]2[C@@H](O)C[C@H](O[C@H]3[C@@H](O)C[C@H](O[C@H]4CC[C@@]5(C)[C@H](CC[C@@H]6[C@@H]5C[C@@H](O)[C@]5(C)[C@@H](C7=CC(=O)OC7)CC[C@]65O)C4)O[C@@H]3C)O[C@@H]2C)C[C@H](O)[C@@H]1O
value.unit: G/DL
result.number: 39.58
//
compound: CC(C)C(=O)Nc1ccc([N+](=O)[O-])c(C(F)(F)F)c1 [FLUTAMIDE]
value.unit: G/DL
result.number: 39.08

====

Each item that follows carries a reported MEAN CORPUSCULAR HEMOGLOBIN CONCENTRATION.
Species on record: Rattus norvegicus
Assay: DrugMatrix - Regimen: Daily Repeat
Type: toxicity, organism-based, Sprague-Dawley
Design: regimen Daily Repeat, gender Male, age 6-8 weeks
Conditions: in vivo, po, 0 mg/kg, 72 h, tissue Blood, route oral GAVAGE, dose level Control, time 3 day, vehicle 100 % WATER
observed.property: MEAN CORPUSCULAR HEMOGLOBIN CONCENTRATION (G/DL)

smiles.code: CN(C)CCCN1c2ccccc2Sc2ccc(Cl)cc21
result.number: 35.7
--
smiles.code: C[C@H]1c2cccc(O)c2C(=O)C2=C(O)[C@]3(O)C(=O)C(C(N)=O)=C(O)[C@@H](N(C)C)[C@@H]3[C@@H](O)[C@@H]21.O
result.number: 39.15
--
smiles.code: Clc1cccc(Cl)c1N=C1NCCN1
result.number: 38.55
